The values you see were collected from the supplement of paper PMC7877785.

- TEST DESCRIPTION: self-splicing fitness, log relative to wild type (ln ratio); higher = more splicing; Tetrahymena group I intron in knt gene, E. coli kanamycin selection, DiMSum; sequences stand for … in CUCUCU…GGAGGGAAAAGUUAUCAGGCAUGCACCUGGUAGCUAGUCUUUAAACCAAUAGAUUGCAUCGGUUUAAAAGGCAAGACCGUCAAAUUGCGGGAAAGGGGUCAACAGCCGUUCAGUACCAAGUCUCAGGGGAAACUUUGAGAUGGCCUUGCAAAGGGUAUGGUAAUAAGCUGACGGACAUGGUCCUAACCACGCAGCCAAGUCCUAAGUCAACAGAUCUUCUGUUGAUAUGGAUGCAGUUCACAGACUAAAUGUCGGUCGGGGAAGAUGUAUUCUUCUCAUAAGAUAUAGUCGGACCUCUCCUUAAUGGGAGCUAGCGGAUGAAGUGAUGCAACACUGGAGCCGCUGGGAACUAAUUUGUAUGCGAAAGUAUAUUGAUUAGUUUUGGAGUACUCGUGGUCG;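 further: selection with 25 µg/mL kanamycin versus none on LB agar overnight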
- REPORTED CONDITIONS: 30 °C
OUTCOME MEASURE: self-splicing fitness (ln)

Answered examples (3):
polymer_sequence=CGUGAGCAAUAUUACGGAGC result=-2.97
polymer_sequence=UGGUAGCAAUAUUACGCGCU result=-2.58
polymer_sequence=AUAUAGCAAUAUUACGUGCU result=-1.24

# input Tell us which self-splicing fitness (ln) value is on record for `ACUGAGCAAUAUUACGCAUG`
# output -1.95

---

- TEST DESCRIPTION: self-splicing fitness, log relative to wild type (ln ratio); higher = more splicing; Tetrahymena group I intron in knt gene, E. coli kanamycin selection, DiMSum; sequences stand for … in CUCUCU…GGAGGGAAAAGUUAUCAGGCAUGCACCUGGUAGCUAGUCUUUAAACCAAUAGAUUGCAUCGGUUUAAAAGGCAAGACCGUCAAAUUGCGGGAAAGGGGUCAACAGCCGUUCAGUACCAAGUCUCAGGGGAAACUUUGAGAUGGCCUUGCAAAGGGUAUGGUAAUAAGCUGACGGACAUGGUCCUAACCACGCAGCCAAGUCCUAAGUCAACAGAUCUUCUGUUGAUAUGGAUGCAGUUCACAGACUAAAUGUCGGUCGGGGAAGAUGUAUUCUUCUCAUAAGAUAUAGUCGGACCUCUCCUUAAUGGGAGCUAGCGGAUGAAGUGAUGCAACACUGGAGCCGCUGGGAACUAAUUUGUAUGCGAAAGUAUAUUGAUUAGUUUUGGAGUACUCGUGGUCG
- REPORTED CONDITIONS: 37 °C
OUTCOME MEASURE: self-splicing fitness (ln)
Note: the reply should be a number with no unit written.

# example entries with known answers
polymer_sequence=ACAAAGCAAUAUUACGUACC outcome_measure="self-splicing fitness (ln)" quantitative_result=-0.353
polymer_sequence=AACUAGCAAUAUUACGGCGU outcome_measure="self-splicing fitness (ln)" quantitative_result=0.0758
polymer_sequence=CUACAGCAAUAUUACGCUCC outcome_measure="self-splicing fitness (ln)" quantitative_result=-2.11
polymer_sequence=GAUUAGCAAUAUUACGUCCA outcome_measure="self-splicing fitness (ln)" quantitative_result=0.198
polymer_sequence=UCGUAGCAAUAUUACGAUUA outcome_measure="self-splicing fitness (ln)" quantitative_result=-0.78
polymer_sequence=GACUAGCAAUAUUACGGGAU outcome_measure="self-splicing fitness (ln)" quantitative_result=-0.788
polymer_sequence=CAAUAGCAAUAUUACGGCUG outcome_measure="self-splicing fitness (ln)" quantitative_result=-0.379
polymer_sequence=CCUAAGCAAUAUUACGCCGA outcome_measure="self-splicing fitness (ln)" quantitative_result=-1.98
polymer_sequence=UGGAAGCAAUAUUACGAAGC outcome_measure="self-splicing fitness (ln)" quantitative_result=-2.35
polymer_sequence=AUUUAGCAAUAUUACGACGC outcome_measure="self-splicing fitness (ln)" quantitative_result=-0.352

# input Please give the documented self-splicing fitness (ln) of `UGCGAGCAAUAUUACGAGCG`
# output -2.07

# input Please list self-splicing fitness (ln) recorded for the sequence `UAUAAGCAAUAUUACGGAGU`
# output -1.46

# input Determine its reported self-splicing fitness (ln): `UAUGAGCAAUAUUACGCACA`
# output -0.282

---

- TEST DESCRIPTION: self-splicing fitness, log relative to wild type (ln ratio); higher = more splicing; Tetrahymena group I intron in knt gene, E. coli kanamycin selection, DiMSum; sequences stand for … in CUCUCU…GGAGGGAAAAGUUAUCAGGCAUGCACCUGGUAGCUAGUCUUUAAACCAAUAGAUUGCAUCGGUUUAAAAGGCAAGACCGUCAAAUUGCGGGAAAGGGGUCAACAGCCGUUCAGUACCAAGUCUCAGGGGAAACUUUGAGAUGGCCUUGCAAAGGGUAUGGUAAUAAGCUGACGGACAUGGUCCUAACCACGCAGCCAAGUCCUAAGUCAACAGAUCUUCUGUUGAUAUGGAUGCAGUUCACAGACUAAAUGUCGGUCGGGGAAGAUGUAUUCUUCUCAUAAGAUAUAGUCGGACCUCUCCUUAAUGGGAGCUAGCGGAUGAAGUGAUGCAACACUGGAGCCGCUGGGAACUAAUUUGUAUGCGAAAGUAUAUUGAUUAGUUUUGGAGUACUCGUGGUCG
- REPORTED CONDITIONS: 30 °C
Recorded self-splicing fitness (ln) values for a group of sequences are listed next.
Just the number, please, no unit attached.

Examples with answers:
polymer_sequence=AGAGAGCAAUAUUACGCCUA quantitative_result=-2.6
polymer_sequence=UCCCAGCAAUAUUACGAACG quantitative_result=-2.94
polymer_sequence=GCAUAGCAAUAUUACGGACC quantitative_result=-0.439
polymer_sequence=UACUAGCAAUAUUACGCUCA quantitative_result=-0.532
polymer_sequence=UACCAGCAAUAUUACGUUCU quantitative_result=-2.28
polymer_sequence=GAGGAGCAAUAUUACGCGUA quantitative_result=-2.97

# input Give self-splicing fitness (ln) for the following sequence: `GCCCAGCAAUAUUACGCCCU`
# output -0.933

---

- TEST DESCRIPTION: self-splicing fitness, log relative to wild type (ln ratio); higher = more splicing; Tetrahymena group I intron in knt gene, E. coli kanamycin selection, DiMSum; sequences stand for … in CUCUCU…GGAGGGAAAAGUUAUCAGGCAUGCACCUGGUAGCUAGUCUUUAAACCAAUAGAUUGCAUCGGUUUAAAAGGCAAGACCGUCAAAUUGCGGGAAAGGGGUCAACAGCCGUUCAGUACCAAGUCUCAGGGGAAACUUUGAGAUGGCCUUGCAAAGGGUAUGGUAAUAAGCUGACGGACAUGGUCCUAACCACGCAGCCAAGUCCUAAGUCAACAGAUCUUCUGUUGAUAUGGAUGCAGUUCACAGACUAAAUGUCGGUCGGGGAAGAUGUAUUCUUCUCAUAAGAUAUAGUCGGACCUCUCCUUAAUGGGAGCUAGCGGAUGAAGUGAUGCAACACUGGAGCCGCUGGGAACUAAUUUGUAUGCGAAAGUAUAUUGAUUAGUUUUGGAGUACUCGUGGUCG
- REPORTED CONDITIONS: 37 °C
OUTCOME MEASURE: self-splicing fitness (ln)
Please give the numeric answer without any surrounding text.

polymer_sequence=UCCCAGCAAUAUUACGCAAG outcome_measure="self-splicing fitness (ln)" quantitative_result=-2.69
polymer_sequence=GUCUAGCAAUAUUACGGGGA outcome_measure="self-splicing fitness (ln)" quantitative_result=-3.16
polymer_sequence=GAGAAGCAAUAUUACGUUCG outcome_measure="self-splicing fitness (ln)" quantitative_result=-0.765
polymer_sequence=UUCUAGCAAUAUUACGGUUA outcome_measure="self-splicing fitness (ln)" quantitative_result=-0.789
polymer_sequence=UUAAAGCAAUAUUACGACUG outcome_measure="self-splicing fitness (ln)" quantitative_result=0.184

# input Specify self-splicing fitness (ln) for `CUCCAGCAAUAUUACGAUGC` and stop.
# output -2.95

# input Identify self-splicing fitness (ln) associated with the sequence `CUGCAGCAAUAUUACGCUUG`
# output -2.25

---

- TEST DESCRIPTION: self-splicing fitness, log relative to wild type (ln ratio); higher = more splicing; Tetrahymena group I intron in knt gene, E. coli kanamycin selection, DiMSum; sequences stand for … in CUCUCU…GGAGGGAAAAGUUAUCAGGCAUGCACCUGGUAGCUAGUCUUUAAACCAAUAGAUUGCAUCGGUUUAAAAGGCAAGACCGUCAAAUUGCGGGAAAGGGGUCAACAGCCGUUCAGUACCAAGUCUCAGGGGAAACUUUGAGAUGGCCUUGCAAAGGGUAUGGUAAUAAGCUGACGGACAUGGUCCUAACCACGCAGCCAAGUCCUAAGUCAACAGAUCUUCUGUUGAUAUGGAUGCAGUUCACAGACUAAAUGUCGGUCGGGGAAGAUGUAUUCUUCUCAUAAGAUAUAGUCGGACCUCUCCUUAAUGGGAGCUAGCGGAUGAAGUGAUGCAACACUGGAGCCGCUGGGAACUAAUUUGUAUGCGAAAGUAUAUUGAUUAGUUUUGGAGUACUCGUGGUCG
- REPORTED CONDITIONS: 30 °C
Quick reference: self-splicing fitness (ln) of the listed items.
Respond using a number only.

Here is how some sequences turned out for self-splicing fitness (ln).
polymer_sequence=AUAAAGCAAUAUUACGUACU quantitative_result=0.123
polymer_sequence=CAAGAGCAAUAUUACGGGGG quantitative_result=-3.3
polymer_sequence=GUUGAGCAAUAUUACGCCCG quantitative_result=-2.7
polymer_sequence=AUGAAGCAAUAUUACGCGUC quantitative_result=-4.16
polymer_sequence=AAAAAGCAAUAUUACGGAAA quantitative_result=-2.24
polymer_sequence=UAAGAGCAAUAUUACGGGAG quantitative_result=-3.33
polymer_sequence=CGCCAGCAAUAUUACGGGGU quantitative_result=-3.35
polymer_sequence=UACUAGCAAUAUUACGAAUG quantitative_result=-0.956
polymer_sequence=CUCCAGCAAUAUUACGAUGC quantitative_result=-2.81
polymer_sequence=CCUAAGCAAUAUUACGGGAG quantitative_result=-4.51

# input Indicate the recorded self-splicing fitness (ln) value for this sequence: `CUUGAGCAAUAUUACGUUUU`
# output -3.92

# input Name the recorded self-splicing fitness (ln) of the sequence listed here: `GCCAAGCAAUAUUACGGUGA`
# output -1.06

# input Supply self-splicing fitness (ln) value. Item: `CAAUAGCAAUAUUACGACGC`
# output -2.73

# input Give self-splicing fitness (ln) for the following sequence: `CGCCAGCAAUAUUACGGCAC`
# output -2.37

# input Consider the sequence `UAACAGCAAUAUUACGGCGA` . State its measured self-splicing fitness (ln).
# output -0.267

# input Look up and state reported self-splicing fitness (ln) for `CAGAAGCAAUAUUACGGAUC`
# output -1.26

# input Look up and state reported self-splicing fitness (ln) for `AAUAAGCAAUAUUACGUUGC`
# output -3.52

# input Indicate its recorded self-splicing fitness (ln); the sequence in question is `AAGGAGCAAUAUUACGUUUA`
# output -2.95

# input Give me measured self-splicing fitness (ln), please, for this sequence: `UCUAAGCAAUAUUACGGCCA`
# output -1.21

# input Retrieve self-splicing fitness (ln) measured for `UCGUAGCAAUAUUACGAGGA` and print it.
# output -3.72

# input Give the value of self-splicing fitness (ln) reported for the following: `UGUCAGCAAUAUUACGCAAA`
# output -0.635

# input Give the reported value of self-splicing fitness (ln) for this record: `ACUCAGCAAUAUUACGCGAG`
# output -2.93

# input Give self-splicing fitness (ln) for `CUUUAGCAAUAUUACGUGAC`
# output -1.42

# input Find the measured self-splicing fitness (ln) of `UAUCAGCAAUAUUACGUCGA` and report it.
# output -1.16
